These data points were gathered from a polymer gas permeability compilation.

Quick list: log10(N2 permeability) per entry.
value type: log10(N2 permeability) (log10 of the value in Barrer)

[[record]]
molecule = "*c1c(C)c(C)c(-n2c(=O)c3cc4oc5cc6c(cc5oc4cc3c2=O)C2(CC(C)(C)c3cc4oc5cc7c(=O)n(*)c(=O)c7cc5oc4cc32)CC6(C)C)c(C)c1C (repeat unit)"
endpoint_result = 1.67

[[record]]
molecule = "*C(F)(F)C1(F)OC(F)(F)C(F)(F)C1(F)C(*)(F)F (repeat unit)"
endpoint_result = 0.70

[[record]]
molecule = "*CC(*)OC1CCCCC1 (repeat unit)"
endpoint_result = 0.00

[[record]]
molecule = "*C/C=C(/C)C* (repeat unit)"
endpoint_result = 0.94

[[record]]
molecule = "*C/C=C(/Cl)C* (repeat unit)"
endpoint_result = 0.32

[[record]]
molecule = "*C(C(=O)OC(C)C)C(*)C(=O)OC(C)CC (repeat unit)"
endpoint_result = 0.70

[[record]]
molecule = "*c1ccc2c(c1)C(=O)n1c-2nc2ccc(Oc3ccc4c(c3)nc3n4C(=O)c4ccc(C(*)(C(F)(F)F)C(F)(F)F)cc4-3)cc21 (repeat unit)"
endpoint_result = -0.09

[[record]]
molecule = "*C(C)=C(*)c1ccccc1 (repeat unit)"
endpoint_result = 1.09

[[record]]
molecule = "*c1cccc(-c2nc3cc(-c4ccc5[nH]c(*)nc5c4)ccc3[nH]2)c1 (repeat unit)"
endpoint_result = -2.32


* * *

value type: log10 N2 permeability (log10 of the value in Barrer)

[[record]]
molecule = "*C(=C(*)c1ccc2c(c1)C(C)(C)CC2(C)C)c1cc(F)cc(F)c1 (repeat unit)"
value_type = "log10 N2 permeability"
endpoint_result = 4.12

[[record]]
molecule = "*c1cccc(N2C(=O)c3ccc(C(=O)c4ccc5c(c4)C(=O)N(*)C5=O)cc3C2=O)c1 (repeat unit)"
value_type = "log10 N2 permeability"
endpoint_result = -1.80

[[record]]
molecule = "*Oc1ccc(-c2nn(-c3ccc(S(=O)(=O)c4ccc(*)cc4)cc3)c(=O)c3ccccc23)cc1 (repeat unit)"
value_type = "log10 N2 permeability"
endpoint_result = -1.57

[[record]]
molecule = "*OC1OC(COCC)C(*)C(OCC)C1OCC (repeat unit)"
value_type = "log10 N2 permeability"
endpoint_result = 0.63

[[record]]
molecule = "*Oc1cc2c(cc1O*)C(=O)N(c1c(C)c(C)c(-n3c(=O)c4cc5oc6cc7c(cc6oc5cc4c3=O)C3(C(C)C)c4ccccc4C7(C(C)C)c4cc(*)c(*)cc43)c(C)c1C)C2=O (repeat unit)"
value_type = "log10 N2 permeability"
endpoint_result = 1.94

[[record]]
molecule = "*Oc1cc2c(cc1O*)C1(CC2(C)C)CC(C)(C)c2cc3c(cc21)Oc1c(C#N)c(*)c(*)c(C(=O)O)c1O3 (repeat unit)"
value_type = "log10 N2 permeability"
endpoint_result = 2.21

[[record]]
molecule = "*c1ccc(S(=O)(=O)c2ccc(N3C(=O)c4ccc(-c5ccc6c(c5)C(=O)N(*)C6=O)cc4C3=O)cc2)cc1 (repeat unit)"
value_type = "log10 N2 permeability"
endpoint_result = -1.30


* * *

value type: O2 permeability (Barrer)

[[record]]
molecule = "*Oc1ccc(Cc2ccc(Oc3c(F)c(F)c(COC(C4CCCC(C(OCc5c(F)c(F)c(*)c(F)c5F)(C(F)(F)F)C(F)(F)F)C4)(C(F)(F)F)C(F)(F)F)c(F)c3F)cc2)cc1 (repeat unit)"
endpoint_result = 2.3

[[record]]
molecule = "*Oc1cc2c(cc1O*)C1(c3ccccc3-2)c2ccccc2-c2cc3c(cc21)Oc1c(C#N)c(*)c(*)c(C#N)c1O3 (repeat unit)"
endpoint_result = 1620

[[record]]
molecule = "*C(=C(*)c1ccc2c(c1)C(C)(C)CC2(C)C)c1ccc(Br)cc1 (repeat unit)"
endpoint_result = 11400

[[record]]
molecule = "*Nc1ccc(C(C)(C)c2ccc(NC(=O)c3ccc(Oc4cc(C(C)(C)C)c(Oc5ccc(C(*)=O)cc5)cc4C(C)(C)C)cc3)c(C)c2)cc1C (repeat unit)"
endpoint_result = 4.5

[[record]]
molecule = "*c1cccc(Oc2ccc(C(c3ccc(Oc4cccc(-n5c(=O)c6cc7c(=O)n(*)c(=O)c7cc6c5=O)c4)cc3)(C(F)(F)F)C(F)(F)F)cc2)c1 (repeat unit)"
endpoint_result = 1.4

[[record]]
molecule = "*c1ccc(Oc2ccc(-c3ccc(-c4ccc(-c5ccc(Oc6ccc(N7C(=O)c8ccc(C(c9ccc%10c(c9)C(=O)N(*)C%10=O)(C(F)(F)F)C(F)(F)F)cc8C7=O)cc6)c(C(F)(F)F)c5)cc4)cc3)cc2C(F)(F)F)cc1 (repeat unit)"
endpoint_result = 17.1

[[record]]
molecule = "*Oc1c(C)cc(*)c(C(=O)c2ccc(Br)cc2)c1C (repeat unit)"
endpoint_result = 8.45

[[record]]
molecule = "*c1ccc(Cc2ccc(N3C(=O)c4ccc(-c5ccc6c(c5)C(=O)N(*)C6=O)cc4C3=O)cc2F)c(F)c1 (repeat unit)"
endpoint_result = 0.143

[[record]]
molecule = "*CC(*)c1ccc([Si](C)(C)CCCC(F)(F)F)cc1 (repeat unit)"
endpoint_result = 38.1

[[record]]
molecule = "*c1ccc(Cc2ccc(N3C(=O)c4ccc(-c5ccc6c(c5)C(=O)N(*)C6=O)cc4C3=O)c(C)c2)cc1C (repeat unit)"
endpoint_result = 0.369

[[record]]
molecule = "*Oc1ccc(S(=O)(=O)c2ccc(Oc3ccc4cc(*)ccc4c3)cc2)cc1 (repeat unit)"
endpoint_result = 0.38

[[record]]
molecule = "*c1ccc(Oc2ccc(N3C(=O)c4ccc(C(c5ccc6c(c5)C(=O)N(*)C6=O)(C(F)(F)F)C(F)(F)F)cc4C3=O)cc2)cc1 (repeat unit)"
endpoint_result = 4.21

[[record]]
molecule = "*Oc1ccc(C(=O)c2ccc(Oc3ccc(C(c4ccc(*)cc4)(C(F)(F)F)C(F)(F)F)cc3)cc2)c2ccccc12 (repeat unit)"
endpoint_result = 1.85

[[record]]
molecule = "*C(=O)n1c(*)nc2cc3nc4c5ccc(*)c6c(*)ccc(c(=O)n4c3cc21)c65 (repeat unit)"
endpoint_result = 0.021

[[record]]
molecule = "*Oc1ccc(C(=O)c2ccc(Oc3c(C)cc(-c4cc(C)c(*)c(C)c4)cc3C)cc2)cc1 (repeat unit)"
endpoint_result = 4.76

[[record]]
molecule = "*Oc1c(Br)cc(C(C)(C)c2cc(Br)c(OC(=O)c3cc(C(*)=O)cc(C(C)(C)C)c3)c(Br)c2)cc1Br (repeat unit)"
endpoint_result = 5.63

[[record]]
molecule = "*c1ccc(Cc2ccc(N3C(=O)c4ccc(S(=O)(=O)c5ccc6c(c5)C(=O)N(*)C6=O)cc4C3=O)cc2)cc1 (repeat unit)"
endpoint_result = 0.296

[[record]]
molecule = "*Oc1ccc(C(C)(C)c2ccc(Oc3ccc(S(=O)(=O)c4ccc(*)c5ccccc45)cc3)cc2)cc1 (repeat unit)"
endpoint_result = 1.2

[[record]]
molecule = "*Oc1c(C)cc(*)c(C(=O)c2ccc(Cl)cc2)c1C (repeat unit)"
endpoint_result = 8.6

[[record]]
molecule = "*Oc1ccc(S(=O)(=O)c2ccc(Oc3ccc(C(C)(C)c4ccc(*)c(C(OC)(C(F)(F)F)C(F)(F)F)c4)cc3C(OC)(C(F)(F)F)C(F)(F)F)cc2)cc1 (repeat unit)"
endpoint_result = 2

[[record]]
molecule = "*c1c(C)cc2c(c1C)C1c3ccccc3C2c2cc(C)c(N3C(=O)C4C5C=CC(C6C(=O)N(*)C(=O)C56)C4C3=O)c(C)c21 (repeat unit)"
endpoint_result = 308

[[record]]
molecule = "*Oc1ccc(C(C)(C)c2ccc(OC(=O)c3cccc(C(=O)Oc4cc(-c5cc(*)cc6ccccc56)c5ccccc5c4)c3)cc2)cc1 (repeat unit)"
endpoint_result = 0.93

[[record]]
molecule = "*c1cc(C)c(C)c(N2C(=O)c3ccc(Oc4cc(C(C)(C)C)ccc4Oc4ccc5c(c4)C(=O)N(*)C5=O)cc3C2=O)c1C (repeat unit)"
endpoint_result = 11

[[record]]
molecule = "*Nc1ccc(C(c2ccc(NC(=O)c3cc(C(*)=O)cc(-c4ccccc4)c3)cc2)(C(F)(F)F)C(F)(F)F)cc1 (repeat unit)"
endpoint_result = 5.5

[[record]]
molecule = "*CC(*)c1ccc(S(=O)(=O)[O-])cc1 (repeat unit)"
endpoint_result = 0.845

[[record]]
molecule = "*C(=C(*)c1ccc([Si](C)(C)CCCCCCCC)cc1)c1ccc(C(C)(C)C)cc1 (repeat unit)"
endpoint_result = 26

[[record]]
molecule = "*c1c(C)c(C)c(N2C(=O)c3ccc(Oc4c(C)ccc(C)c4Oc4ccc5c(c4)C(=O)N(*)C5=O)cc3C2=O)c(C)c1C (repeat unit)"
endpoint_result = 11

[[record]]
molecule = "*CC(CCl)O* (repeat unit)"
endpoint_result = 1.05

